# test summary: antimalarial activity against Dd2 strain (AID 2302);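 also: 0% = DMSO untreated growth and 100% = chloroquine plus artemisinin killed control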
# test context: P. falciparum Dd2 in RBCs, LDH growth readout, 72 h; at 2 µM; active compounds read high
Reported growth inhibition values are given for each entry in this list.
# unit: % | format: bare number

// worked examples, growth inhibition included
CN1CCCC(OC(=O)c2ccccc2)C1 (stereo not given)
-2
CN1CCN(CCCNCc2cccc(-c3ccc(CNCCc4ccccc4)cc3)c2)CC1
20
COc1cc2nc(N3CCC(CNCc4ccc(-c5ccc(C(F)(F)F)cc5)cc4)CC3)nc(N)c2cc1OC
100
Fc1ccc2nccc(NN=Cc3ccccc3Cl)c2c1
39

Now consider the entry below.
**Query** Suppose we examine the compound "COc1cc(C)ccc1S(=O)(=O)N1CCCCC(c2ccc(C(F)(F)F)cc2)=N1" ; what growth inhibition value has been reported?
**Result** 89

###

# test summary: antimalarial activity against Dd2 strain (AID 2302);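 also: 0% = DMSO untreated growth and 100% = chloroquine plus artemisinin killed control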
# test context: P. falciparum Dd2 in RBCs, LDH growth readout, 72 h; at 2 µM; active compounds read high
Reported growth inhibition values are given for each entry in this list.
# unit: % | format: bare number

// worked examples, growth inhibition included
Nc1cccc(CNCc2ccc(-c3cccc(-c4nc5ccccc5[nH]4)c3)cc2)c1
78
CC1(C)CCC(C)(C)c2c1ccc(C1CCN(CCCCNC(=O)c3ccc(-c4ccc(C#N)cc4)cc3)CC1)c2O
85
CCNc1cc(C(=O)N[C@@H](Cc2ccccc2)[C@H](O)CNC(C)(C)Cc2cccc(OC)c2)cc(N2CCCC2=O)c1
97

**Query** Suppose we examine the molecule CCCCCCCC1CC(CC(=O)Nc2ccnc3ccc(OC)cc23)CN1 (centres undefined) ; what growth inhibition value has been reported?
**Result** 58

**Query** Repeat with Cc1cccc2[nH]c(-c3cccc(-c4ccc(NC(=O)C(C)CN(C)C)cc4)c3)nc12 (centres undefined)
**Result** 100

**Query** Repeat with "COc1ccc(Nc2ncc3c(-c4cccc(NC(=O)Cc5ccncc5)c4)c[nH]c3n2)cc1OC"
**Result** 87

**Query** Repeat with "O=C(NCCCCCN1CCC(c2c[nH]c3ccccc23)CC1)Nc1cccc(Cl)c1"
**Result** 0

**Query** Repeat with "Cc1cccc(Oc2cccc3[nH]nc(N)c23)c1"
**Result** -3

**Query** Repeat with "Cc1cccc2[nH]c(-c3ccc(-c4cccc(CN5CCN(c6ccc(C#N)cn6)CC5)c4)s3)nc12"
**Result** 8

###

# test summary: inhibition of 3D7 malaria parasite growth – strain 3D7 (AID 2306);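 also: 0% = DMSO wells and 100% = chloroquine plus artemisinin control wells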
# test context: P. falciparum 3D7 erythrocytic growth, LDH absorbance, 72 h; at 2 µM; active compounds read high
Reported growth inhibition values are given for each entry in this list.
# unit: % | format: bare number

// worked examples, growth inhibition included
CN1CCN(Cc2ccc(-c3cc4c(Nc5ccc(OCc6cccc(F)c6)c(Cl)c5)ncnc4s3)[nH]2)CC1
101
COc1ccccc1CCNC(=O)c1cnc(N2CCN(c3ccncc3)CC2)c(Cl)c1
98
Cc1[nH]c(C)c(-c2ccc(-c3cccc(Cl)c3)nc2)c(=O)c1Cl
97
Cc1[nH]c(C)c(-c2ccc(-c3ccc4c(c3)OCO4)nc2)c(=O)c1Br
96
CC(=O)Nc1nc(C(=O)Nc2ccc(-c3cccc(-c4nc5ccc(C(F)(F)F)cc5[nH]4)c3)cc2)cs1
101

Now consider the entry below.
**Query** Suppose we examine the molecule "CCc1nc(N)nc(N)c1-c1ccccc1" ; what growth inhibition value has been reported?
**Result** 92
